Experiment: Acute toxicity test (LD50) in mice
Conditions: mouse, in vivo, ip; i.p. (1% solution), male ddY mice, after seven days
Counter-ions that a name gives are not always drawn.
Listing of entries alongside the reported LD50 at 168 h.
Answer with the figure and its unit, nothing else.

1. COC(=O)C1=C(C)NC(C)=C(C(=O)OCCN(C)Cc2ccccc2)C1c1cccc([N+](=O)[O-])c1 (stereo not drawn) [Nicardipine, reference compound]; 166 mg/kg

Query: Hello, please tell me recorded LD50 at 168 h for this one: CC1=C(C(=O)OCCN(C)Cc2ccccc2)C(c2cccc(Cl)c2)C(P2(=O)OC(C)CC(C)O2)=C(C)N1 (stereo not drawn) [Hydrochloride of Example 7]
Result: 23 mg/kg

Query: Specify reported LD50 at 168 h for the compound shown: CC1=C(C(=O)OCCN(C)Cc2ccccc2)C(c2ccccc2C(F)(F)F)C(P2(=O)OC(C)CC(C)O2)=C(C)N1 (stereo not drawn) [Hydrochloride of Example 6]
Result: 17 mg/kg
